biological target: JAK1 domain1 (Homo sapiens (Human), UniProt P23458); experiment: KiNativ assay; assay type: binding; conditions: H929 live cell, read-out: inhibition (10 μM)
Sequence (P23458 whole entry, the tested form may be a part): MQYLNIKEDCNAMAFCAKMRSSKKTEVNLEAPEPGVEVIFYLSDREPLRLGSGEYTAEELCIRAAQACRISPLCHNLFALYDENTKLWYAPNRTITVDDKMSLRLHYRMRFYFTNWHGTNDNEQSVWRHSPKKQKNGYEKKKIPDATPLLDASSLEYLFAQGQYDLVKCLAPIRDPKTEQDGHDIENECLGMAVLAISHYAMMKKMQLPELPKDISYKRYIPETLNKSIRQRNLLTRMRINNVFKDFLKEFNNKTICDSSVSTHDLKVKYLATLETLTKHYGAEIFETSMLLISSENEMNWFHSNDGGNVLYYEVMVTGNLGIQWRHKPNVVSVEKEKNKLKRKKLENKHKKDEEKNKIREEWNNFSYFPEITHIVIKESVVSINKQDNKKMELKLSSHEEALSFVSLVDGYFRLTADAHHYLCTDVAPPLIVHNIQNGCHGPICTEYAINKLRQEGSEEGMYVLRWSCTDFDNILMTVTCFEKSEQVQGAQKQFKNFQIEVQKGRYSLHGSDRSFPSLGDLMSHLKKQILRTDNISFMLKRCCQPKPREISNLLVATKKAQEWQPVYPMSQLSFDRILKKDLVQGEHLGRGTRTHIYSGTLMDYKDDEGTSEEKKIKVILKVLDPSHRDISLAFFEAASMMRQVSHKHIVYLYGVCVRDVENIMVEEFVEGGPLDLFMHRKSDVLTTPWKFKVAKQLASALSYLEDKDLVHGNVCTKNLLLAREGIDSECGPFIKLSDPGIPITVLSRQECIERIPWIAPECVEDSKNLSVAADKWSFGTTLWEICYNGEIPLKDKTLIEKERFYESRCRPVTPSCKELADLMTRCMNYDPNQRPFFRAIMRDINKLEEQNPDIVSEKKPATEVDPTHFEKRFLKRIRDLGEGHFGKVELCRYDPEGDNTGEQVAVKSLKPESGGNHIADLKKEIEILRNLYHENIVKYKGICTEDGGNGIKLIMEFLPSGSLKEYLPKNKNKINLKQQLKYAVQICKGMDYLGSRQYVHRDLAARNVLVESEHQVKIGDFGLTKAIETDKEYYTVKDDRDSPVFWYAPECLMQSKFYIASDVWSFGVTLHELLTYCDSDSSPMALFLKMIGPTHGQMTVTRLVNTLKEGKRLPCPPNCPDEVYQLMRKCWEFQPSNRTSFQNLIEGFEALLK
measureName: inhibition at 10 µM (%)
Answer format: numeric, % implied, no suffix.

Example entries begin here.
{"columns": ["compound", "unitsOfMeasure", "inhibition at 10 µM"],
 "data": [
  ["Nc1ncc(-c2ccc(NS(=O)(=O)C3CC3)cc2OC2CCCCC2)cc1-c1ccc2c(c1)CCNC2=O [Compound I-65]", "%", 2.1],
  ["Nc1ncc(-c2ccc(NS(=O)(=O)C3CC3)cc2F)cc1-c1ccc2c(c1)CCNC2=O [Compound I-51]", "%", -8.2],
  ["Nc1ncc(-c2cccc([N+](=O)[O-])c2F)cc1-c1ccc2c(c1)CCNC2=O [Compound I-9]", "%", -44.3]
]}

Let me check: COc1cc(NS(=O)(=O)C2CC2)ccc1-c1cnc(N)c(-c2ccc3c(c2)CCNC3=O)c1 [Compound I-50] , system JAK1 domain1 (Homo sapiens (Human), UniProt P23458), measured inhibition at 10 µM is -19.8

Per the reported JAK1 domain1 (Homo sapiens (Human), UniProt P23458) data, Nc1ncc(-c2cccc3ncsc23)cc1-c1ccc2c(c1)CCNC2=O [Compound I-13] has inhibition at 10 µM of -22.4

Param item: CN(C1CC1)S(=O)(=O)c1ccc(-c2cnc(N)c(-c3ccc4c(c3)CCNC4=O)c2)c(F)c1 [Compound I-28] ; param system: JAK1 domain1 (Homo sapiens (Human), UniProt P23458); output inhibition at 10 µM: -38.6
